# Test Summary: NCI Yeast Anticancer Drug Screen. Data for the rad50 strain (AID 155);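 further: 0% = growth of vehicle-only cultures of the same strain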
# Run Conditions: S. cerevisiae rad50 strain growth inhibition; at 50.0 µM (retest, dose inferred, filed as 5.0); stronger effect = higher value
Compounds without any hit were thinned out: in the full panel of roughly 79,000, 15% have a hit. Activity calls are given as the source filed them. No stated cut-off is given here; in the data, active means growth inhibition above about 70%; inactive means the rest.
growth inhibition values, listed per item

Check out these entries, answers already filled in.
Molecule	growth inhibition
COc1c(O)c2c(c3cc(C(=O)N4CCc5c4c(O)c(OC)c4[nH]c(C(=O)N6CC7CC78C6=CC(=O)c6[nH]cc(C)c68)cc54)[nH]c13)CCN2C(N)=O (stereo not drawn)	97% (active)
N#C[S-].[Nd+3].c1cnc2c(c1)ccc1cccnc12.c1cnc2c(c1)ccc1cccnc12.c1cnc2c(c1)ccc1cccnc12	99% (active)

query: Give growth inhibition for the following molecule: Cc1ccc(C(=O)OC(C(=O)O)C(OC(=O)c2ccc(C)cc2)C(=O)O)cc1 (stereo not drawn) (tested in a mixture with another compound)
result: 79% (active)

query: Could you please provide reported growth inhibition for COC(=O)C1=C(C)N2CCSC2(C)C(C(=O)OC)C1c1cccc(Cl)c1 (stereo not drawn) ? Thanks!
result: 85% (active)

query: Identify the reported growth inhibition for the following entry. CC(O)C(=O)O.CC(O)C(=O)O.[Ni] (stereo not drawn)
result: 7% (inactive)

query: Look up and report measured growth inhibition for this entry: O=P(CCCCP(=O)(c1ccccc1)c1ccccc1)(c1ccccc1)c1ccccc1.[Cl][Sn]([Cl])([c]1ccccc1)[c]1ccccc1
result: 98% (active)

query: Dear colleague, please send me the reported growth inhibition for COC1/C=C\C=C(/C)C(=O)NC2=CC(=O)C(NCCCl)=C(CC(C)CC(OC)C(O)C(C)/C=C(/C)C1OC(N)=O)C2=O (stereo not drawn) when you can.
result: 97% (active)

query: Output growth inhibition of O=C(COc1ccc(Cl)c(Cl)c1)N(Cc1ccccc1)Cc1ccc[n+](Cc2ccc(S(=O)(=O)F)cc2)c1
result: 99% (active)
